Tested on: icHep (PXB-cells on claudin-1, -2, -3, -9 coated Transwell permeable support)
Test: icHep permeation assay (sinusoidal to bile side) to estimate drug biliary excretion clearance
Experimental setup: icHep (JFC), mean of 3
Recorded metric: Predicted in vivo CLbile, int, Mean (mL/min)
Answer in mL/min, number only, no unit symbol.

Provide value of Predicted in vivo CLbile, int, Mean for this record tested with icHep (PXB-cells on claudin-1, -2, -3, -9 coated Transwell permeable support): CC[C@]1(O)C[C@H]2CN(CCc3c([nH]c4ccccc34)[C@@](C(=O)OC)(c3cc4c(cc3OC)N(C=O)[C@H]3[C@@](O)(C(=O)OC)[C@H](OC(C)=O)[C@]5(CC)C=CCN6CC[C@]43[C@@H]65)C2)C1
37.3

Same lookup for CC[C@H]1OC(=O)[C@H](C)[C@@H](O[C@H]2C[C@@](C)(OC)[C@@H](O)[C@H](C)O2)[C@H](C)[C@@H](O[C@@H]2O[C@H](C)C[C@H](N(C)C)[C@H]2O)[C@](C)(O)C[C@@H](C)C(=O)[C@H](C)[C@@H](O)[C@]1(C)O , please.
158

Same lookup for CN/C(=N/CCSCc1nc[nH]c1C)NC#N , please.
188

***
Provide value of Predicted in vivo CLbile, int, Mean for this record tested with icHep (PXB-cells on claudin-1, -2, -3, -9 coated Transwell permeable support): CN(Cc1cnc2nc(N)nc(N)c2n1)c1ccc(C(=O)N[C@@H](CCC(=O)O)C(=O)O)cc1 [Methotrexate, methotrexate]
241

Same lookup for CCOc1ccc2ccccc2c1C(=O)N[C@@H]1C(=O)N2[C@@H]1SC(C)(C)[C@@H]2C(=O)O , please.
479

====

Test system: icHep (PXB-cells on claudin-1, -2, -3, -9 coated Transwell permeable support)
Test: icHep permeation assay (sinusoidal to bile side) to estimate drug biliary excretion clearance
Experimental setup: icHep (JFC); scaled up from in vitro CLbile,int; mean ± S.D., n = 3
Decide using Biliary excretion clearance, in vivo, predicted, CLbile, int: a value greater than or equal to 200 mL/min is TRUE, a smaller one is FALSE.

Textbook exercise: given the entry CCOc1ccc2ccccc2c1C(=O)N[C@@H]1C(=O)N2[C@@H]1SC(C)(C)[C@@H]2C(=O)O , state whether its Biliary excretion clearance, in vivo, predicted, CLbile, int is greater than or equal to 200 mL/min.
TRUE

***
Textbook exercise: given the entry CC[C@H]1OC(=O)[C@H](C)[C@@H](O[C@H]2C[C@@](C)(OC)[C@@H](O)[C@H](C)O2)[C@H](C)[C@@H](O[C@@H]2O[C@H](C)C[C@H](N(C)C)[C@H]2O)[C@](C)(O)C[C@@H](C)C(=O)[C@H](C)[C@@H](O)[C@]1(C)O , state whether its Biliary excretion clearance, in vivo, predicted, CLbile, int is greater than or equal to 200 mL/min.
FALSE

Same lookup for CC[C@]1(O)C[C@H]2CN(CCc3c([nH]c4ccccc34)[C@@](C(=O)OC)(c3cc4c(cc3OC)N(C=O)[C@H]3[C@@](O)(C(=O)OC)[C@H](OC(C)=O)[C@]5(CC)C=CCN6CC[C@]43[C@@H]65)C2)C1 , please.
FALSE

Same lookup for CN/C(=N/CCSCc1nc[nH]c1C)NC#N , please.
FALSE

Same lookup for CN(Cc1cnc2nc(N)nc(N)c2n1)c1ccc(C(=O)N[C@@H](CCC(=O)O)C(=O)O)cc1 [Methotrexate, methotrexate] , please.
TRUE
